Please go through the items and note down their percent inhibition of viability.
- Test system: normal primary NK cells, pool 2 (3 donors) (IL-2 2.5 ng/mL);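 also: normalised to DMSO-only wells as negative and benzethonium chloride as positive control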
- experimental-protocol: percent inhibition of viability; higher = more inhibition
- condition: 72 h; 10 nM
Give bare numbers, in %.

Please review the entries below; each comes with its answer.
[
  {
    "compound": "C#Cc1cccc(Nc2ncnc3cc(OCCOC)c(OCCOC)cc23)c1 [Erlotinib] (max concentration tested 10000 nM)",
    "system-tested": "normal primary NK cells, pool 2 (3 donors) (IL-2 2.5 ng/mL)",
    "unit-text": "%",
    "percent inhibition of viability": -1.77
  },
  {
    "compound": "N[C@@H]1CCCN(c2c(/C=C3\\SC(=O)NC3=O)cccc2-c2ccccc2)C1 [AZD1208] (max concentration tested 10000 nM)",
    "system-tested": "normal primary NK cells, pool 2 (3 donors) (IL-2 2.5 ng/mL)",
    "unit-text": "%",
    "percent inhibition of viability": -0.84
  }
]

Let us examine a further case.
Give the value of percent inhibition of viability reported for the following: Nc1cc(F)ccc1NC(=O)/C=C/c1cnn(C/C=C/c2ccccc2)c1 [RGFP966] (max concentration tested 10000 nM)
-8.68
